Biological target: T1, CD123 (Homo sapiens (Human), UniProt P26951 19-305, limits assumed)
T1 construct: also called CD123-Signal
T1 sequence: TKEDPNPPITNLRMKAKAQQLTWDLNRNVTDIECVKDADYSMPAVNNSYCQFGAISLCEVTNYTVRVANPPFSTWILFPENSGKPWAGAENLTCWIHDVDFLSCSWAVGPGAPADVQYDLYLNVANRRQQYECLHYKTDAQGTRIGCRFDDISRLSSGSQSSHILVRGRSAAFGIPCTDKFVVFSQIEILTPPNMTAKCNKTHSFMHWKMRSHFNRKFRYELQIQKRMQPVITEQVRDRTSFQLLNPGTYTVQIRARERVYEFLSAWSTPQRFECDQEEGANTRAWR
Experiment: ELISA, format not described
Parameters: unit not given here
Would you please tag the item Met when its ELISA_avg is 4 or above, and Not met when it is below?

Worked set:
| BINDER | ASSIGNED_LABEL |
| --- | --- |
| D domain SEQ ID NO: 749 (designed binder) MGSWYEFDSRLMAIEDRLWALGGSEAELAAFEKEIAAFESELQAYKGKGNPEVEYLRQEAAEIRMILQAYRHN | Not met |
| D domain SEQ ID NO: 765 (designed binder) MGSWIEFWDRLEAIEDRLWALGGSEAELAAFEKEIAAFESELQAYKGKGNPEVEELRDEAAWIRDSLQAYRHN | Met |

Prompt: # bool: ELISA_avg of D domain SEQ ID NO: 679 (designed binder) MGSWFEFEERLEAIIYRLWALGGSEAELAMFEESIAWFESDLQQYKGKGNPEVEALEYEAMAISKELKAYRHN >= 4
Response: Not met
